- Test system: K4 kissing-loop RNA reporter;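 also: bound reporter read as fluorescence of individual clusters on recovered sequencing chips by microscopy, with normalized cluster intensities fitted with a binding model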
- procedure_text: apparent KD of K4 kissing-loop reporter; higher = weaker reporter binding
- experimental_conditions: Eterna round: R107; input ligand: arginine 13.2 mM
Here, each record is paired with measured apparent KD of K4 kissing-loop reporter data.
attribute_measured: apparent KD of K4 kissing-loop reporter (nM)

1. GGAGUGAUGUUCCAUUUUUAAAUCUCCGAUACCAGUAUGGAAACAUACCCUUGGCAGCGGUAAACCGCAGAUUAGGAAACUAGUC [Theophylline A K4 1] : 682
2. CAUACUAUCAGAAGGAGCGUGGAAUAUUCAUCUGUAUCUAAUACGAGUGAUGUUCGUAAUUCACAGGUAGGUCGCUGAUUAAUAC [whbob_Ex_Arginine_B_2th159] : 272
3. CUCGUGGGUUUGGGAGGGCUUGUGGGAAGAUAGGAUAUCUAGGGAGGGAGAAGGAUCUAUAGAAUAUAGUGAUGUUAUAUAUGGG [SSFMNA.aA] : 261
4. UGCUUAAUGGAAGGAUAUUAGGGUUCGACCGCGUAUCAUUGUUAGUCUGGCCAGUGAUGUUGGCCUUAAGAAGGUCCGCUACGGU [theeternabot_exclusion_KL_FMN_B_27] : 201
5. GUUGCAGCCCGUGAUACCAGCAUCGGUCGCCGGGUCCAGUGAUGUUGGGCUUGCGUUCUAUGCCCUUGGCAGCGCGGCCUGACAG [Qulaanar] : 104
6. UAGUCCUAGUGAUGGUCAUCACGUGGCGGGCGAGGACCGGUACGGCCGCCACUCGACUUUGCAGUGAUGUUGCAAACCGGACAAU [Exclusion - Tryptophan A (Freestyle 20)] : 134
7. AAUACGUUCACGGCCGCCACUGAAUAAUUGGUAAGUAGUGAUGUUACUUUACAUAUCUUAUUUAACAGGACCGGGUGAUCGUUUA [JR_Nu_ExcTryptoB_Sub028] : 108
8. UACUAUAUUCUGUCGUUUUUAUUAGUUUGUCAGGAUAUCGUUUAUUCGAGAAGGGACACUGUCUAGUGAUGUUAGACAUUUCUUU [#04 K4 FMN A Exclusion] : 90.7
9. UUCAGUGAUGAUGAACACUGUUGUAUAAACUAGGAUAUGCUGAUAAGCAGAAGGAGUGAUGUUCCGUUCAUCAUCAGAAUUAAAU [KL-XFMN-A4] : 378
10. GUGCAGUGAUGUUGCACGAGGAAAGACGAUACCAGCCGUAAAUAAGGCCCUUGGCAGCGUAGGCUAGCAUAAAGUACGCUAGUCC [Enarines] : 105
11. AGCUGUGGCAGAAGGAGCGACAGUUAUUCUGAUAGUACUCUGAGUGAUGUUCAGAACGACUGUCAGGUAGGUCGCUGUCACAGCU [#01 K4 Arginine B Exclusion] : 159
12. UGUUUUUUUUUGAUGUUUGUUGUAAAAUGGCAGGAUAUCGUAGAGGCGAGAAGGGCUUUUAUGCGUUAUGAGUGAUGUUUGUAGG [vevvmullin] : 252
13. UCGAAGGAUGGAAGGAGCGCUCGUCAGCCCUGCGAGUGAUGUUCGUGGGUAAAUAGUCGCGAGCAGGUAGGUCGCCAUCUUGAGC [Ritera] : 111
14. CCACCAAGCACGGCCGCCACUAAAUCUGCAAGUAACCUAAAGUGAUGUUUUAUCUUGCGUCAGACUAGGACCGGGUGUCAAGUUA [theeternabot_sameState_KL_Trp_B_45] : 408
15. AAGCAUUGGUCUGAUACCAGUUGAUGACGAAUACGUCAACUGGAGUGAUGUUCCUAAAACAACCCUUGGCAGCAGACCGAUGCAA [MAT - Same State Theophlline B - Mod of Eli - D2] : 704
16. GGGAGUAGUGCGGCCGCCACUGUGAAAGAAGAAGAAUAUAGUGAUGUUAUAUAGGAAUUAAAGAAUAGGACCGGGCAUUAGAUUU [SSTRyptB.Q] : 198
17. GCCGUAGAUGGAAGGAGCGUGGUUAAUGUAAGUGAUGUUUACGAGGUUAACAAUUGACCGCCACAGGUAGGUCGCCAUCUACGGC : 65.9
18. UGGCGAGUGAUGUUCGUUGUUGUAGUGUGUCGAGGACCGGUACGGCCGCCACUCGAGUUGGUUGUUGUUGUUGCUGUUGUUGCUG [#03 K4 Tryptophan A Same State] : 158
